Source: BigSolDB 2.1

Conditions: in n-butanol, 293.15 K
measure: solubility (mole fraction)
Lab note: write the figure by itself, no unit.

Give the reported solubility (mole fraction) for this compound. Cc1ncc([N+](=O)[O-])n1CCO
0.00533

###

Settings: in n-butanol, 317.85 K
measure: solubility (mole fraction)
Output spec: single numeric token, no unit.

Return solubility (mole fraction) for the following molecule: Cc1ncc([N+](=O)[O-])n1CCO
0.0132

###

Settings: in water, 318.05 K
measure: solubility (mole fraction)
Just the number, please, no unit after it.

Provide solubility (mole fraction) value for the following molecule: Cc1ncc([N+](=O)[O-])n1CCO
0.00216

###

Settings: in ethanol, 307.55 K
measure: solubility (mole fraction)
Returns: the value as a bare number; no unit string appended.

Respond only with solubility (mole fraction) recorded for Cc1ncc([N+](=O)[O-])n1CCO
0.00763

###

Details: in isopropanol, 307.55 K
measure: solubility (mole fraction)
In your answer, state the number alone without any accompanying words.

State its solubility (mole fraction) for this molecule: Cc1ncc([N+](=O)[O-])n1CCO
0.00615

###

Conditions: in methanol, 307.55 K
measure: solubility (mole fraction)
Number only, please.

Give me measured solubility (mole fraction), please, for this compound: Cc1ncc([N+](=O)[O-])n1CCO
0.0112

###

Settings: in ethyl acetate, 297.55 K
measure: solubility (mole fraction)
Give a plain numeric answer without units written out.

Supply measured solubility (mole fraction) of Cc1ncc([N+](=O)[O-])n1CCO in your reply.
0.00395

###

Settings: in ethanol, 293.15 K
measure: solubility (mole fraction)

Determine from records and report solubility (mole fraction) for Cc1ncc([N+](=O)[O-])n1CCO
0.00433

###

Conditions: in methanol, 317.85 K
measure: solubility (mole fraction)
Give your answer as a number; write no unit.

Specify reported solubility (mole fraction) for the molecule shown: Cc1ncc([N+](=O)[O-])n1CCO
0.017

###

Details: in n-butanol, 302.55 K
measure: solubility (mole fraction)

Kindly indicate its recorded solubility (mole fraction). Item: Cc1ncc([N+](=O)[O-])n1CCO
0.00692

###

Details: in water, 313.15 K
measure: solubility (mole fraction)
Please give only the number in your answer, with no unit.

Give the reported solubility (mole fraction) for this compound. Cc1ncc([N+](=O)[O-])n1CCO
0.00181

###

Details: in isopropanol, 302.55 K
measure: solubility (mole fraction)
# output: bare number, no unit

Output solubility (mole fraction) of Cc1ncc([N+](=O)[O-])n1CCO
0.00559

###

Conditions: in chloroform, 307.55 K
measure: solubility (mole fraction)
Respond using a number only.

For the compound Cc1ncc([N+](=O)[O-])n1CCO , report solubility (mole fraction).
0.00288

###

Settings: in isopropanol, 312.35 K
measure: solubility (mole fraction)

Kindly indicate its recorded solubility (mole fraction). Item: Cc1ncc([N+](=O)[O-])n1CCO
0.00794

###

Settings: in methanol, 322.35 K
measure: solubility (mole fraction)
Please respond with just the number, no unit label.

Supply reported solubility (mole fraction) belonging to this compound: Cc1ncc([N+](=O)[O-])n1CCO
0.0201

###

Settings: in isopropanol, 322.35 K
measure: solubility (mole fraction)
Give the figure by itself; no unit, no explanation.

Annotate the compound Cc1ncc([N+](=O)[O-])n1CCO with its measured solubility (mole fraction).
0.0125
